target: Ornithine decarboxylase (Mus musculus); assay: Inhibition of ornithine decarboxylase (ODC) activity; format: functional; set-up: concentration or dose not given beside the values
In this section, each of the compounds is paired with its reported Activity.
Answer format: number, then unit.

CC(C)NCCCCNCCCCNCCCCNC(C)C ... 90%

Provide value of Activity for this record tested with Ornithine decarboxylase (Mus musculus): "CC(C)(C)NCCCCNCCCCNCCCCNC(C)(C)C" 100%

Provide value of Activity for this record tested with Ornithine decarboxylase (Mus musculus): "CCNCCCCNCCCCCNCCCCNCC" 20%

Provide value of Activity for this record tested with Ornithine decarboxylase (Mus musculus): "CNCCCCNCCCCNCCCCNC" 4%

Provide value of Activity for this record tested with Ornithine decarboxylase (Mus musculus): "CNCCCNCCCNCCCNC" 6%

Provide value of Activity for this record tested with Ornithine decarboxylase (Mus musculus): "CCNCCCCNCCCCNCCCNCC" 5%

----------
system: L1210; experiment: Inhibition of radiolabeled spermidine uptake into L1210 cells in vitro.; type: functional, cell-based, Mus musculus
pKi: −log10 of the molar value.
Short version: pKi at least 5 is fulfilled, less is not fulfilled.

CCNCCCCNCCCCNCCCCNCC ... fulfilled

Quick check: does "CCNCCCCNCCCNCCCCNCC" have pKi greater than or equal to 5? fulfilled

Quick check: does "CNCCCNCCCNCCCNC" have pKi greater than or equal to 5? fulfilled

Quick check: does "CCCNCCCNCCCCNCCCNCCC" have pKi greater than or equal to 5? fulfilled

Quick check: does "CC(C)NCCCNCCCNCCCNC(C)C" have pKi greater than or equal to 5? not fulfilled

Quick check: does CCNCCCNCCCCNCCCNCC [BIS(ETHYL)SPERMINE] have pKi greater than or equal to 5? fulfilled

Quick check: does "CNCCCNCCCCNCCCNC" have pKi greater than or equal to 5? fulfilled

Quick check: does "CNCCCCNCCCCNCCCCNC" have pKi greater than or equal to 5? fulfilled

Quick check: does "CCNCCCCNCCCCNCCCCN" have pKi greater than or equal to 5? fulfilled

Quick check: does "CCNCCCCNCCCCCNCCCCNCC" have pKi greater than or equal to 5? fulfilled

Quick check: does CCNCCCNCCCNCCCNCC [BIS(ETHYL)NORSPERMINE] have pKi greater than or equal to 5? not fulfilled

Quick check: does "CCNCCCCNCCCCNCCCCNC(C)(C)C" have pKi greater than or equal to 5? fulfilled

Quick check: does "CC(C)(C)NCCCCNCCCCNCCCCNC(C)(C)C" have pKi greater than or equal to 5? not fulfilled

----------
target: Spermidine/spermine N(1)-acetyltransferase (SAT) (Mus musculus) (UniProt Q6P8J2+P48026); experiment: […] spermidine/spermine N1-Acetyltransferase (SSAT) activity; format: functional; parameters: concentration or dose not given beside the values
Sequence (P48026 whole entry, looked up): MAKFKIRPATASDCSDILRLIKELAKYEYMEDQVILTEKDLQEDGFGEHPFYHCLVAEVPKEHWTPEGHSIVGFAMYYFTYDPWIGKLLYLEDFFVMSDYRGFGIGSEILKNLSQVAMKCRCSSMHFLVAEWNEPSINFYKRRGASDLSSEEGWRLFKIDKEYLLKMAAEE
Sequence (Q6P8J2 whole entry, looked up): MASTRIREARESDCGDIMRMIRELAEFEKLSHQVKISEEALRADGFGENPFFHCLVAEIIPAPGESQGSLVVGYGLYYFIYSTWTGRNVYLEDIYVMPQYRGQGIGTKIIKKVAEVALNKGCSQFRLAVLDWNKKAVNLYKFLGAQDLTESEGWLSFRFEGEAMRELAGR
Reported endpoint: Activity (%)
// note: answer is a bare numeric in %

Sample answers from the record:
CCNCCCNCCCNCCCN ... 410
CCNCCCCNCCCCNCCCCN ... 110

Requested field: Activity. Item: "CCCNCCCNCCCCNCCCNCCC" 500

----------
test system: L1210; test: In vitro inhibition of L1210 growth after 96 hours.; format: functional, cell-based; settings: Mus musculus, L1210, 96 h
Mark each entry 1 (yes) if its IC50 sits below 200 nM, and 0 (no) for all others.

CCNCCCNCCCCNCCCNCC [BIS(ETHYL)SPERMINE] ... 1 (yes)
CCNCCCCNCCCCCNCCCCNCC ... 1 (yes)
CCNCCCNCCCNCCCNCC [BIS(ETHYL)NORSPERMINE] ... 0 (no)

For this compound, is IC50 lower than 200 nM? "CCNCCCCNCCCNCCCCNCC" 1 (yes)

For this compound, is IC50 lower than 200 nM? "CCNCCCCNCCCCNCCCCNC(C)(C)C" 1 (yes)

----------
molecular target: Ornithine decarboxylase (Mus musculus) (UniProt P00860); assay: Inhibition of ornithine decarboxylase (ODC) activity; format: functional; design: concentration or dose not given beside the values
Sequence (P00860 whole entry): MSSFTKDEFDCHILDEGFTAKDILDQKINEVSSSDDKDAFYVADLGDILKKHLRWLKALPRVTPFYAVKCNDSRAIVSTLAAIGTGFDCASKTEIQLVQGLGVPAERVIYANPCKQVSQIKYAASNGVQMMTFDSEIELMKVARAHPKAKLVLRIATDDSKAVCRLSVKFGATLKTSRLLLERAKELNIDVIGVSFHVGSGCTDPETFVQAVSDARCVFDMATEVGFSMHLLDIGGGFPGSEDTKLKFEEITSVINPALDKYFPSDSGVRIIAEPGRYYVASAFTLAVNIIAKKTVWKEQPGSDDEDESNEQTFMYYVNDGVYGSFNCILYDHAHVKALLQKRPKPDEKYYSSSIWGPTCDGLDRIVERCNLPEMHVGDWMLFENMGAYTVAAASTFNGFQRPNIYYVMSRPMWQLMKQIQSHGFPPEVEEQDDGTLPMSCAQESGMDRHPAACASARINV
Mark each entry met if its Activity sits below 7%, and not met for all others.

CCNCCCNCCCNCCCN ... met
CCNCCCNCCCCNCCCNCC [BIS(ETHYL)SPERMINE] ... met
CNCCCNCCCCNCCCNC ... met
CCNCCCCNCCCCNCCCCNC(C)(C)C ... not met
CC(C)NCCCNCCCNCCCNC(C)C ... not met
CCCNCCCNCCCCNCCCNCCC ... not met

For this molecule, is Activity lower than 7%? "CCNCCCCNCCCCNCCCCN" met

----------
system: L1210; assay: Inhibition of radiolabeled spermidine uptake into L1210 cells in vitro.; type: functional, cell-based, Mus musculus
Reported endpoint: pKi
Value format note: pKi is -log10 of concentration (mol/L); just state the number.

Sample answers from the record:
CCNCCCCNCCCCNCCCNCC ... 5.10
CCNCCCNCCCNCCCN ... 5.11

# context switch: different molecule, same pKi
Requested field: pKi. Item: "CC(C)NCCCCNCCCCNCCCCNC(C)C" 5.09

----------
tested on: L1210; test: In vitro inhibition of L1210 growth after 96 hours.; format: functional, cell-based; details: Mus musculus, L1210, 96 h
Reported endpoint: IC50 (µM)
// note: answer is a bare numeric in µM

Sample answers from the record:
CC(C)(C)NCCCCNCCCCNCCCCNC(C)(C)C ... 3
CNCCCCNCCCCNCCCCNC ... 0.32
CCNCCCCNCCCCNCCCCNCC ... 0.07

Requested field: IC50. Item: "CC(C)NCCCCNCCCCNCCCCNC(C)C" 0.06

Requested field: IC50. Item: "CCNCCCNCCCNCCCN" 2.5

All figures here come from ChEMBL document CHEMBL1127367.
